solubility thermodynamic at 24 h reference
Protocol Details: Equilibrium solubility of the compound in phosphate buffer after 24 hrs at pH 7.4
Assay type: physicochemical
Observed Property: solubility thermodynamic at 24 h (µM)

1) CC(C)Oc1cccc(/C=C2\SC(=O)NC2=O)c1N1CCC[C@@H](N)C1 378
2) CC(C)COc1cccc(/C=C2\SC(=O)NC2=O)c1N1CCC[C@@H](N)C1 337
3) N[C@@H]1CCCN(c2ccccc2/C=C2\SC(=O)NC2=O)C1 782

----------
Test Target: Serine/threonine-protein kinase pim-2 (Homo sapiens)
Protocol Details: Inhibition of human PIM2 using FITC-(AHX)RSRHSSYPAGT-COOH as substrate after 90 mins by mobility shift assay in presence of 50 uM ATP
IC50 reference

Compound	IC50 (µM)
N[C@@H]1CCCN(c2ccccc2/C=C2\SC(=O)NC2=O)C1	0.014
COc1cccc(/C=C2\SC(=O)NC2=O)c1N1CCC[C@@H](N)C1	0.005
N[C@H]1CCN(c2cc(Cl)ccc2/C=C2\SC(=O)NC2=O)C1	0.079
CN(C)C1CCN(c2ccccc2/C=C2\SC(=O)NC2=O)C1 (configuration not stated)	0.5
N[C@@H]1CCCN(c2c(Cl)cccc2/C=C2\SC(=O)NC2=O)C1	0.005
N[C@@H]1CCCN(c2c(/C=C3\SC(=O)NC3=O)cccc2-c2ccncc2)C1	0.019

----------
Protocol Details: Dissociation constant, pKa of the compound
Format: physicochemical
Observed Property: pKa

1) O=C1NC(=O)/C(=C/c2ccccc2)S1 6.14

----------
pIC50 reference
Test Target: Serine/threonine-protein kinase pim-3 (Homo sapiens)
Protocol Details: Inhibition of human PIM3 using FITC-(AHX)RSRHSSYPAGT-COOH as substrate after 90 mins by mobility shift assay in presence of 50 uM ATP
pIC50: −log10 of the molar value.

Molecule	pIC50
O=C1NC(=O)/C(=C/c2ccccc2N2CCNCC2)S1	7.44
O=C1NC(=O)/C(=C/c2ccccc2)S1	6.14
O=C1NC(=O)/C(=C/c2cccc(Cl)c2N2CCNCC2)S1	7.59
N[C@H]1CCN(c2cc(Cl)ccc2/C=C2\SC(=O)NC2=O)C1	8.30
CN(C)C1CCN(c2ccccc2/C=C2\SC(=O)NC2=O)C1 (stereo not drawn)	6.96
N[C@H]1CCN(c2ccccc2/C=C2\SC(=O)NC2=O)C1	7.38
N[C@@H]1CCCN(c2c(/C=C3\SC(=O)NC3=O)cccc2-c2ccncc2)C1	8.40
CCOc1cc(/C=C2\SC(=O)NC2=O)ccc1O	6.41
COc1ccc(/C=C2\SC(=O)NC2=O)cc1OC	6.55
N[C@@H]1CCCN(c2ccccc2/C=C2\SC(=O)NC2=O)C1	8.05
CC(C)(C)OC(=O)N[C@H]1CCN(c2ccccc2/C=C2\SC(=O)NC2=O)C1	5.49

----------
Test Target: Serine/threonine-protein kinase pim-2 (Homo sapiens, UniProt Q9P1W9)
Sequence (Q9P1W9 whole entry): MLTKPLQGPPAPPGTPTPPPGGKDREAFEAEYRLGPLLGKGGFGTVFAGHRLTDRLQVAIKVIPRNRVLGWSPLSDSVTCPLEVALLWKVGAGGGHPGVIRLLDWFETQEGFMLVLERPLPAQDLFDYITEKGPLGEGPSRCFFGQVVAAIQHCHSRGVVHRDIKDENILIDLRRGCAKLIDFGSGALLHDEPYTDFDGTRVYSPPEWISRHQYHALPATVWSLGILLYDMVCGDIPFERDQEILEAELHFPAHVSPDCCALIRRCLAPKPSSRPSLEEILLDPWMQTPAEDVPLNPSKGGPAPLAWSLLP
Protocol Details: Inhibition of human PIM2 using FITC-(AHX)RSRHSSYPAGT-COOH as substrate after 90 mins by mobility shift assay in presence of 5 mM ATP
pIC50: −log10 of the molar value.
pIC50 reference
Observed Property: pIC50

1) CC(C)Oc1cccc(/C=C2\SC(=O)NC2=O)c1N1CCC[C@@H](N)C1 7.30
2) N[C@@H]1CCCN(c2ccccc2/C=C2\SC(=O)NC2=O)C1 5.92
3) COc1cccc(/C=C2\SC(=O)NC2=O)c1N1CCC[C@@H](N)C1 6.49
4) N[C@@H]1CCCN(c2c(Cl)cccc2/C=C2\SC(=O)NC2=O)C1 6.51
5) N[C@@H]1CCCN(c2c(/C=C3\SC(=O)NC3=O)cccc2-c2ccncc2)C1 6.16
6) N[C@@H]1CCCN(c2c(Br)cccc2/C=C2\SC(=O)NC2=O)C1 6.82
7) CCOc1cccc(/C=C2\SC(=O)NC2=O)c1N1CCC[C@@H](N)C1 6.80
8) CC(C)COc1cccc(/C=C2\SC(=O)NC2=O)c1N1CCC[C@@H](N)C1 6.85

meta.source: ChEMBL document CHEMBL2046384
